test system: SF-539 CNS; test: NCI-60 one-dose screen, 48 h (100 = growth as untreated, 0 = no growth, -100 = all killed); details: 10 µM unless noted
This is part of a sample that, as a whole, favours compounds with a hit. Of some 83,000 tested, about 20% had one in any assay.
quantityKind: growth (%)
# number only, unit % dropped from output

1. O=C1N/C(=N\c2nccs2)S/C1=C\C=C/c1ccccc1	13
2. Nc1nc(-c2ccccc2)c(N=Nc2ccc(Cl)cc2[N+](=O)[O-])s1	86.5
3. CC(=O)N1CCN(Cc2ccc3c(NNC(=O)c4cnccn4)nc4cc(F)ccc4n23)CC1	6.02
4. O=C(NNc1nc2cc(F)ccc2n2c(CN3CCCCC3)ccc12)c1cnccn1	-66
5. COc1ccc2[nH]c(O)c(N=NC(=O)COc3ccc(NC(=O)Nc4ccccc4)cc3)c2c1	-22.7
6. Nc1nnc(-c2c[nH]c3ncc(Br)cc23)c(-c2c[nH]c3ccc(F)cc23)n1	34.8
7. CCCSc1nc(NCCc2c[nH]c3ccccc23)c(C#N)c(-c2ccc(F)cc2)n1	44.7
8. Cc1ccc(C2CC(c3ccc(S(=O)(=O)NCCNc4nc(Nc5ccc(F)cc5)nc(N(C)C)n4)cc3)=Nc3c(N)nc(N)nc3N2)cc1 (stereo not given)	-44

# next molecule below
Challenge: May I ask what growth has been recorded for `COC1=C[C@]23CCC(=O)N2CCc2cc4c(cc2[C@@H]3[C@@H]1OC(=O)[C@H](C)O)OCO4` ?
Response given: -34.5

---

test system: NCI/ADR-RES ovarian; assay: NCI-60 one-dose screen, 48 h; conditions: 10 µM unless noted
About 83,000 compounds went through this panel and 20% of them were active in at least one assay; those are over-represented in the sample as a whole. The source made the active and inactive calls. The calls were made as follows: active = growth percent below 10; inactive = the rest.
Would you mind answering with one of these outcomes? y for active, n for inactive

Study these solved cases before continuing.
1. CCCCCCCCc1ccc(S(=O)(=O)Nc2ccc(CC)cc2C(=O)O)cc1	n
2. CC(C)c1ccc2c(N)c(C(=O)Nc3cccc(C(F)(F)F)c3)sc2n1	n
3. O=C(C1=CNC(=S)NC1c1ccc(O)cc1)c1cc2ccccc2oc1=O (centres undefined)	n

Okay, next one:
Challenge: What call does the record list for `CN(C)c1ccnc(CNCCSC2(c3ccccc3)c3ccccc3C=Cc3ccccc32)c1` ?
Response given: y

---

test system: NCI-H522 lung; test: NCI-60 one-dose screen, 48 h (100 = growth as untreated, 0 = no growth, -100 = all killed); conditions: 10 µM unless noted
This is part of a sample that, as a whole, favours compounds with a hit. Of some 83,000 tested, about 20% had one in any assay.
quantityKind: growth (%)
# number only, unit % dropped from output

A selection of reference data follows.
1. S=C(Nc1ccccc1)Nc1ccc(OCc2nc3ccccc3[nH]2)cc1	2.87
2. CC(C)(C)OC(=O)/C=C/c1cccc2c1C(=O)NC(C)(c1cc3cc(Cl)ccc3oc1=O)N2 (stereo not given)	34.9
3. CN(C)CCOc1ccc(C(=O)C2[C@H](c3ccc(Cl)cc3)[C@@H](c3ccccc3)NC23C(=O)Nc2ccccc23)cc1 (stereo not given in full)	89.6

Challenge: // fetch NCI-H522 lung growth for C=C1CCC2C3(C)COC(c4ccc(F)cc4)OC3CCC2(C)C1CC(O)C1=CCOC1=O (stereo not given)
Response given: -28.2

Challenge: // fetch NCI-H522 lung growth for `COc1ccc(C(=O)/C=C/c2ccc(Oc3nc(Nc4ccc(F)cc4)nc(N(C)C)n3)c(OC)c2)cc1`
Response given: 49.7

---

system: T-47D breast; assay: NCI-60 one-dose screen, 48 h; settings: 10 µM unless noted
About 83,000 compounds went through this panel and 20% of them were active in at least one assay; those are over-represented in the sample as a whole. Calls of active or inactive are those of the source. The calls were made as follows: active = growth percent below 10; inactive = the rest.
Would you mind answering with one of these outcomes? active, inactive

Study these solved cases before continuing.
1. O=C(Cn1c(/C=C/c2cccc([N+](=O)[O-])c2)nc2ccccc2c1=O)Nc1ccccc1	inactive
2. N#Cc1c(-c2ccccc2Cl)cc(-c2ccc3ccccc3c2)[nH]c1=O	active
3. O=S(=O)(Nc1cccc(-n2cnc3cc(-c4ccc(O)cc4)ccc32)c1)C1CC1	inactive
4. O=C(COc1ccc(NC(=O)Nc2ccc(Cl)c(Cl)c2)cc1)N=Nc1c(O)[nH]c2ccc(Br)cc12	active
5. COc1ccc(-c2c(Nn3cnnn3)no[n+]2[O-])cc1	inactive

Challenge: What call does the record list for `Cc1ccc(Cc2cnc(NC(=O)c3ccc(/C=C4\SC(=S)N(C)C4=O)cc3)s2)cc1` ?
Response given: inactive

Challenge: What call does the record list for `CC(C)CSc1nc(NCCc2c[nH]c3ccccc23)c(C#N)c(-c2ccccc2)n1` ?
Response given: inactive

Challenge: What call does the record list for O=C(/C=C/c1ccc(O)c(O)c1)NC1CCOC1O (stereo unspecified) ?
Response given: inactive

Challenge: What call does the record list for `CCCCCCCCc1ccc(C(=O)Nc2cccc(P(=O)(O)O)c2)cc1` ?
Response given: inactive

Challenge: What call does the record list for C=C1CCC2C3(C)COC(c4ccccc4)OC3CCC2(C)C1CC(NCc1ccccc1)C1=CCOC1=O (stereo unspecified) ?
Response given: inactive

Challenge: What call does the record list for C=C1CCC2C3(C)COC(c4ccccc4)OC3CCC2(C)C1CC(Sc1ccccc1)C1=CCOC1=O (stereo unspecified) ?
Response given: inactive

---

tested on: SK-OV-3 ovarian; assay: NCI-60 one-dose screen, 48 h (100 = growth as untreated, 0 = no growth, -100 = all killed); details: 10 µM unless noted
This is part of a sample that, as a whole, favours compounds with a hit. Of some 83,000 tested, about 20% had one in any assay.
quantityKind: growth (%)
# number only, unit % dropped from output

1. CCCCn1c(O)c(N=Nc2nc(-c3cc4ccccc4oc3=O)cs2)c2cc(Br)ccc21	124
2. COc1ccc(C(=O)/C=C/c2ccc(Cl)c(Cl)c2)cc1S(N)(=O)=O	52.5
3. Cc1ccc(NC(=O)CN2CCN(c3ncnc4c3cnn4-c3ccccc3)CC2)cc1	112

Challenge: May I ask what growth has been recorded for CC1(C)CC[C@]2(C(=O)Nc3ccc(Br)cc3)CC[C@]3(C)C(=CCC4[C@@]5(C)C[C@@H](O)[C@H](O)[C@@](C)(CO)C5CC[C@]43C)C2C1 (stereo not given in full) ?
Response given: 4.34

Challenge: May I ask what growth has been recorded for `COc1ccc(/C=C/c2nc3ccccc3nc2Nc2cccc(C)c2)cc1` ?
Response given: 95.9

---

# maps each entry to its growth
system: M14 melanoma; assay: NCI-60 one-dose screen, 48 h (100 = growth as untreated, 0 = no growth, -100 = all killed); conditions: 10 µM unless noted
About 83,000 compounds went through this panel and 20% of them were active in at least one assay; those are over-represented in the sample as a whole.
# number only, unit % dropped from output

A selection of reference data follows.
1. CN(C)c1ccnc(CNCCSC2(c3ccc(C(F)(F)F)cc3)c3ccccc3C=Cc3ccccc32)c1	-74.7
2. C=C1CC[C@@H]2[C@]3(C)COC(c4ccco4)O[C@@H]3CC[C@@]2(C)[C@@H]1C/C=C1/C(=O)OCC1OC(C)=O (stereo not given in full)	19
3. C(=C\c1cc(/C=C/c2ccccc2)c2ccccc2n1)/c1ccccc1	51.4
4. Cc1ccc(C(SCCNCc2cc(N(C)C)ccn2)(c2ccccc2)c2ccccc2)cc1	-84.3
5. COc1ccc(-c2nc3cc(C)ccc3n2CC(=O)N=Nc2c(O)[nH]c3ccc(Cl)cc23)cc1	-44.6

Challenge: May I ask what growth has been recorded for `COc1ccc(-c2ccnc(SCc3cc4ccccc4[nH]c3=O)n2)cc1OC` ?
Response given: 45.4

Challenge: May I ask what growth has been recorded for `NS(=O)(=O)c1ccc(CCNC(=O)CSc2ccc(-c3ccc(Br)cc3)nn2)cc1` ?
Response given: 77

Challenge: May I ask what growth has been recorded for `Cc1cc(N=C2NC(=O)CS2)n[nH]1` ?
Response given: 96.5

Challenge: May I ask what growth has been recorded for `O=c1onc(-c2cc3ccccc3nc2Cl)n1-c1cccc2ccccc12` ?
Response given: 38.3

Challenge: May I ask what growth has been recorded for COc1cc2c(c(OC)c1OC)C(=O)CC(c1cccc(NC(=O)c3cc(NC(=O)[C@H](C)N)ccc3Cl)c1)O2 (stereo not given in full) ?
Response given: 44.3

Challenge: May I ask what growth has been recorded for CC(C)C(C(=O)O)n1c(O)c(/C=C2/C=c3cc4c(cc3=NC2=O)OCO4)sc1=S (stereo not given) ?
Response given: 103

Challenge: May I ask what growth has been recorded for `CN1CCc2c(sc3ncnc(N/N=C/c4ccc(Cl)cc4Cl)c23)C1` ?
Response given: -81.4

Challenge: May I ask what growth has been recorded for `Cn1cc(-c2nc(N)nnc2-c2c[nH]c3ccc(F)cc23)c2cccnc21` ?
Response given: 26.3

Challenge: May I ask what growth has been recorded for `CCC(C)(C)c1ccc(OCCCCN2CCN(c3ccncc3)CC2)cc1` ?
Response given: -56.6

Challenge: May I ask what growth has been recorded for CC1(c2cc3cc(Br)ccc3oc2=O)NC(=O)c2c(/C=C/C(=O)OC3CC4CCC3(C)C4(C)C)cccc2N1 (stereo not given) ?
Response given: 86

Challenge: May I ask what growth has been recorded for `Cn1cc(-c2nc(N)nnc2-c2c[nH]c3ccc(Br)cc23)c2cccnc21` ?
Response given: 33.9

Challenge: May I ask what growth has been recorded for `COc1ccc(NC(=O)Nc2ccc(OCc3ccc(F)cc3)cc2)cc1` ?
Response given: 77

Challenge: May I ask what growth has been recorded for `CC(C)CSc1nc(NCCc2c[nH]c3ccccc23)c(C#N)c(-c2ccccc2)n1` ?
Response given: 74.5

Challenge: May I ask what growth has been recorded for `O=C(Cn1c(/C=C/c2ccccc2)nc2ccccc2c1=O)Nc1ccccc1` ?
Response given: 102

Challenge: May I ask what growth has been recorded for `CC(=O)Nc1ccc(-n2cnc3ccc(-c4ccc(O)cc4)cc32)cc1` ?
Response given: 48.7

Challenge: May I ask what growth has been recorded for `COc1ccc(C(=O)/C=C/c2ccccc2Cl)cc1S(N)(=O)=O` ?
Response given: 109

Challenge: May I ask what growth has been recorded for `C/C(=N\Nc1ccc(S(N)(=O)=O)cc1)c1ccc(N=Nc2c(Nc3ccccc3)[nH][nH]c2=O)cc1` ?
Response given: -62.5

Challenge: May I ask what growth has been recorded for `COc1ccc(C(=O)/C=C/c2c(F)cccc2Cl)cc1S(N)(=O)=O` ?
Response given: -59.4

Challenge: May I ask what growth has been recorded for `Nc1cc2ccccc2c(=O)n1NC(=O)c1ccc(I)cc1` ?
Response given: 102

Challenge: May I ask what growth has been recorded for `O=C(O)c1cccc(-c2ccc(/C=N/NC(=O)c3[nH]c4ccc(Br)cc4c3-c3ccccc3)o2)c1` ?
Response given: 65.9

Challenge: May I ask what growth has been recorded for `N#Cc1ccc(/C=N/NC(=O)c2[nH]c3ccc(Br)cc3c2-c2ccccc2)o1` ?
Response given: 12.1

Challenge: May I ask what growth has been recorded for `COc1cc(-c2ccc(/C=N/NC(=O)c3[nH]c4ccc(Br)cc4c3-c3ccccc3)s2)cc(OC)c1OC` ?
Response given: 82.5

Challenge: May I ask what growth has been recorded for `CN(C)CCCNC(=O)c1cc(NC(=O)c2cc(NC(=O)c3ccc(C#Cc4ccccc4)cc3)cn2C)cn1C` ?
Response given: -79.8

Challenge: May I ask what growth has been recorded for `COc1ccc(C(=O)/C=C/c2ccc(OC)c(OCc3ccccc3)c2)cc1OC` ?
Response given: 34.6

Challenge: May I ask what growth has been recorded for `Cn1cc(-c2nnc(N)nc2-c2c[nH]c3ccc(F)cc23)c2cccnc21` ?
Response given: 21.6
